- ASSAY: Intrinsic clearance in human liver microsomes(HLM) for metabolic stability
- Format: ADME, Microsome
- DETAILS: read-out: CI
MEASURED ENDPOINT: CLint scaled (mL/min/kg)
Output spec: scalar in mL/min/kg, unitless text.

Worked set:
COc1cccc(-n2c(=O)n(Cc3c(F)cccc3Br)c(=O)n(C[C@H](N)c3ccccc3)c2=O)c1F :: 158
COc1cccc(-n2c(=O)n(Cc3ccccc3OC(F)(F)F)c(=O)n(C[C@H](N)c3ccccc3)c2=O)c1F :: 146

Kindly consider the entry below.
Query :: // lookup CLint scaled for COc1cccc(-n2c(=O)n(Cc3ccccc3C#N)c(=O)n(C[C@H](N)c3ccccc3)c2=O)c1F
Result :: 249

---

- EXPERIMENTAL SYSTEM: Gonadotropin-releasing hormone receptor (Homo sapiens, UniProt P30968)
- Sequence (P30968 whole entry): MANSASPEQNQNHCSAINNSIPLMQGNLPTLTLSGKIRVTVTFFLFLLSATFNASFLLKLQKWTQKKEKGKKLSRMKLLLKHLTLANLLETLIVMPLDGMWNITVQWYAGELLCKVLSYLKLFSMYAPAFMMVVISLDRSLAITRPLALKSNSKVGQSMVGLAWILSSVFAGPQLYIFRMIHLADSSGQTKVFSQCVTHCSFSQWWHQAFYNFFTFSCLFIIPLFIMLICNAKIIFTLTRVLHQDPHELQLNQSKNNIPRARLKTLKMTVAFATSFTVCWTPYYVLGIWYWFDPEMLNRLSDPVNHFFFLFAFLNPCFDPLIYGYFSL
- ASSAY: In vitro ability to inhibit des-Gly[125I-Tyr, DLeu, NMeLeu,Pro-NEt]-GnRH radioligand binding to the cloned human GnRH receptor stably expressed in HEK293 cells
- Assay type: cell-based
MEASURED ENDPOINT: Ki (nM)
Just the number in nM, nothing appended.

Past entries and their recorded results:
COc1cccc(-n2c(=O)n(Cc3ccccc3C)c(=O)n(C[C@H](N)c3ccccc3)c2=O)c1F :: 29
COc1cccc(-n2c(=O)n(Cc3c(F)cccc3F)c(=O)n(CC(N)c3ccccc3F)c2=O)c1F (stereo not given) :: 20
COc1cccc(-n2c(=O)n(Cc3c(Cl)cccc3C#N)c(=O)n(C[C@H](N)c3ccccc3)c2=O)c1F :: 73
COc1ccccc1Cn1c(=O)n(C[C@H](N)c2ccccc2)c(=O)n(-c2cccc(OC)c2F)c1=O :: 120

Query :: # Ki lookup, item COc1cccc(-n2c(=O)n(CCC(N)c3cccs3)c(=O)n(Cc3c(F)cccc3F)c2=O)c1 (stereo not given)
Result :: 27

---

- EXPERIMENTAL SYSTEM: Gonadotropin-releasing hormone receptor (Homo sapiens)
- Sequence (P30968 whole entry): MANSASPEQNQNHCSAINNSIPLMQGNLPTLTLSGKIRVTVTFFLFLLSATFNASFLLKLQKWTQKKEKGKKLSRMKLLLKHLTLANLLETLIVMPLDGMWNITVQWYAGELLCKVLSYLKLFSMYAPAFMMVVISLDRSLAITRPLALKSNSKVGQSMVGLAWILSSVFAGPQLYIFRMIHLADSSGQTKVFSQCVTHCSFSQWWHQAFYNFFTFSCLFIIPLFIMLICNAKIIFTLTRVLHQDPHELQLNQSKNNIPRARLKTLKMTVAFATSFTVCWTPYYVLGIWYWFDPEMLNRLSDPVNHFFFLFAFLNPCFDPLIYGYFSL
pKi: recorded values
# pKi: negative log10 of molar concentration; output just the value

Consider the reported pKi for these molecules:
COc1cccc(-n2c(=O)n(CC[C@H](N)CC(C)C)c(=O)n(Cc3c(F)cccc3F)c2=O)c1F :: 5.82
COc1cccc(-n2c(=O)n(Cc3c(F)cccc3F)c(=O)n(CC(N)c3ccccc3F)c2=O)c1 (stereo not drawn) :: 6.92
COc1cccc(-n2c(=O)n(CCC(N)c3cccc(F)c3)c(=O)n(Cc3c(F)cccc3F)c2=O)c1 (stereo not drawn) :: 7.18
COc1cccc(-n2c(=O)n(C[C@H](N)c3ccccc3)c(=O)n(C(C)c3c(F)cccc3F)c2=O)c1F (stereo partly drawn) :: 6.20
COc1cccc(-n2c(=O)n(Cc3c(F)cccc3F)c(=O)n(C[C@H](N)c3ccccc3)c2=O)c1F :: 8.05
COc1cccc(-n2c(=O)n(CCC(N)c3ccc(F)cc3)c(=O)n(Cc3c(F)cccc3F)c2=O)c1 (stereo not drawn) :: 7.08
COc1cccc(-n2c(=O)n(CCC(N)c3ccccc3F)c(=O)n(Cc3c(F)cccc3F)c2=O)c1 (stereo not drawn) :: 6.10

Turning now to a further record.
Query :: Dear colleague, I am looking for the recorded pKi of the following molecule: COc1cccc(-n2c(=O)n(Cc3c(F)cccc3F)c(=O)n(CC(CN)c3ccccc3)c2=O)c1 (stereo not drawn)
Result :: 7.55
